// data source = paper PMC4503722

Would you mind telling me the reported Hela CellCycMod PI Cell Number IC50/EC50 of each entry?
Test system: HeLa cells
protocol.details: cells
Type: cell-based
assay.context: assay number 18; cell number
Your answer is read as nM, so omit the unit and give the number.

Look up Hela CellCycMod PI Cell Number IC50/EC50 with HeLa cells for this compound: "CC(=O)[C@]1(O)Cc2c(O)c3c(c(O)c2[C@@H](O[C@H]2C[C@H](N)[C@H](O)[C@H](C)O2)C1)C(=O)c1ccccc1C3=O" 14.2

Same again, this time with "CC(C)C[C@H](NC(=O)[C@H](CCc1ccccc1)NC(=O)CN1CCOCC1)C(=O)N[C@@H](Cc1ccccc1)C(=O)N[C@@H](CC(C)C)C(=O)[C@@]1(C)CO1" 9.9

Same again, this time with Cc1ccccc1C(=O)Nc1ccc(C(=O)N2CCCC(N(C)C)c3ccccc32)cc1 (stereo not drawn) 2914.7

Same again, this time with Cc1cc(CC(C)CC(C)(C)C)n(O)c(=O)c1 (stereo not drawn) 133.2

###

Test system: nuclear β-catenin in C2C12 cells
protocol.details: cells
Type: cell-based
assay.context: assay number 5; concentration response
Classify as follows. Reported WntCondMedia_bCatenin C2C12 IC50/EC50 greater than or equal to 0.4 µM: Fulfilled. Reported WntCondMedia_bCatenin C2C12 IC50/EC50 below: Not fulfilled.

Check if WntCondMedia_bCatenin C2C12 IC50/EC50 >= 0.4 µM (inclusive). Item: "Cl.O[C@@H](c1cc(C(F)(F)F)nc2c(C(F)(F)F)cccc12)[C@H]1CCCCN1" Fulfilled

Same again, this time with "C=CC(=O)Nc1cc2c(Nc3ccc(F)c(Cl)c3)ncnc2cc1OCCCN1CCOCC1" Fulfilled

Same again, this time with c1ccc2c(c1)Sc1ccccc1N2CC1CN2CCC1CC2 (stereo not drawn) Fulfilled

Same again, this time with "CCCCCCCCCCCCNCCNCCNCC(=O)O" Fulfilled

Same again, this time with "COc1ccc2cc1Oc1ccc(cc1)C[C@H]1c3c(cc4c(c3Oc3cc5c(cc3OC)CCN(C)[C@@H]5C2)OCO4)CCN1C" Fulfilled

Same again, this time with "C#C[C@]1(O)CC[C@H]2[C@@H]3CCc4cc(OC5CCCC5)ccc4[C@H]3CC[C@@]21C" Fulfilled

Same again, this time with "O=C(CCl)c1ccc(Cl)cc1Cl" Not fulfilled

Same again, this time with "COc1cc(NCc2ccc3nc(N)nc(N)c3c2C)cc(OC)c1OC" Not fulfilled

Same again, this time with CC[C@]1(O)C[C@@H]2CN(CCc3c([nH]c4ccccc34)[C@@](C(=O)OC)(c3cc4c(cc3OC)N(C)[C@H]3[C@@](O)(C(=O)OC)[C@H](OC(C)=O)[C@]5(CC)C=CCN6CC[C@]43[C@@H]65)C2)C1.O=S(=O)(O)O [NCGC00263548-01] Not fulfilled

Same again, this time with CSc1ccc2c(c1)C(N1CCN(C)CC1)Cc1ccccc1S2 (stereo not drawn) Fulfilled

Same again, this time with "CC[C@]1(O)C[C@H]2CN(CCc3c([nH]c4ccccc34)[C@@](C(=O)OC)(c3cc4c(cc3OC)N(C=O)[C@H]3[C@@](O)(C(=O)OC)[C@H](OC(C)=O)[C@]5(CC)C=CCN6CC[C@]43[C@@H]65)C2)C1" Not fulfilled

Same again, this time with "CC(=O)O[C@@]12CO[C@@H]1C[C@H](O)[C@@]1(C)C(=O)[C@H](O)C3=C(C)[C@@H](OC(=O)[C@H](O)[C@@H](NC(=O)OC(C)(C)C)c4ccccc4)C[C@@](O)([C@@H](OC(=O)c4ccccc4)[C@H]21)C3(C)C" Not fulfilled
